- Assay protocol: basal RPMI8226 viability, no added stimulus, profiling panel, cell-based, calcein-AM fluorescence, 48 h, PK04 Diversity Set (AID 1166);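 note: cells grown under basal conditions without added stimulus; test concentration not given here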
- Condition set: RPMI8226 myeloma viability, higher = more signal
Record form. Attribute: z-score. Fill in for each entry.
Numbers only.

Here are 3 compounds together with their reported answers.
COC(=O)[C@@]1(Cc2ccc(F)cc2)[C@H]2c3cc(C(=O)N(C)C)n(CCn4cc([N+](=O)[O-])nc4C)c3C[C@H]2CN1C(=O)c1ccccc1    0.211
C=C(COC)C(=O)CC[C@@H](OC(=O)c1cccnc1)c1cccc(OCCO)c1    -1.71
COC(=O)C1=CC(CCCO)=CC(C2CC2)N(Cc2cccc(OC(F)(F)F)c2)C=C1C(=O)OC (centres undefined)    -0.708

Can you share its z-score? I mean this compound: COCCOC(=O)N1C(=O)[C@@]2(c3cc(C#CCC(C(=O)OC)C(=O)OC)ccc31)[C@H](C(N)=O)[C@H]1C(=O)O[C@H](c3ccccc3)[C@H](c3ccccc3)N1[C@@H]2c1ccc(OCCO)cc1
-3.21
